Lab note: pIC50 readings collected with Pim-2 (Homo sapiens (Human), UniProt Q9P1W9) for the following compounds.
Sequence (Q9P1W9 whole entry): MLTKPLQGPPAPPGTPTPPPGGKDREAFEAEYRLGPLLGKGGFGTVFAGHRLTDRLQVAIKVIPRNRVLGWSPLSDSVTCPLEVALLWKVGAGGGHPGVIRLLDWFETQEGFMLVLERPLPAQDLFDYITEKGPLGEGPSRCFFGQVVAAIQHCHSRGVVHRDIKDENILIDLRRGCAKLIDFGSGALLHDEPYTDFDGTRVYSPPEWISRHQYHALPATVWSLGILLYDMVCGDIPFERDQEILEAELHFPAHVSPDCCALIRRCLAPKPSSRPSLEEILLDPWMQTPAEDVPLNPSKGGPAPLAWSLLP
pIC50: −log10 of the molar value.

Known results for compounds:
>>> observed_measurement("Cn1ncc(NC(=O)c2c(N)sc3cccnc23)c1N1CCC[C@@H](N)C1 [Example 3]")
"< 5.70"
>>> observed_measurement("Cn1ncc(NC(=O)c2c(N)oc3cccnc23)c1N1CCCC(N)CC1 (stereo not shown) [Example 46]")
"< 5.70"
>>> observed_measurement("Nc1sc2cc(-c3ccccc3)cnc2c1C(=O)Nc1cnccc1N1CCC[C@H](N)C1 [Example 24]")
"< 6.00"
>>> observed_measurement("CC(C)N1CC(c2cnc3c(C(=O)Nc4cnccc4N4CCC[C@H](N)C4)c(N)sc3c2)C1 [Example 33]")
"< 5.70"

Moving on to another compound below.
What does the record list as pIC50 for CN1CC(c2cnc3c(C(=O)Nc4cnn(C)c4N4CCCC(N)CC4)c(N)sc3c2)C1 (stereo not shown) [Example 32] ?
6.00 to 7.00
